system.under.test: Protein deacetylase HDAC6 (Homo sapiens, UniProt Q9UBN7)
Sequence (Q9UBN7 whole entry): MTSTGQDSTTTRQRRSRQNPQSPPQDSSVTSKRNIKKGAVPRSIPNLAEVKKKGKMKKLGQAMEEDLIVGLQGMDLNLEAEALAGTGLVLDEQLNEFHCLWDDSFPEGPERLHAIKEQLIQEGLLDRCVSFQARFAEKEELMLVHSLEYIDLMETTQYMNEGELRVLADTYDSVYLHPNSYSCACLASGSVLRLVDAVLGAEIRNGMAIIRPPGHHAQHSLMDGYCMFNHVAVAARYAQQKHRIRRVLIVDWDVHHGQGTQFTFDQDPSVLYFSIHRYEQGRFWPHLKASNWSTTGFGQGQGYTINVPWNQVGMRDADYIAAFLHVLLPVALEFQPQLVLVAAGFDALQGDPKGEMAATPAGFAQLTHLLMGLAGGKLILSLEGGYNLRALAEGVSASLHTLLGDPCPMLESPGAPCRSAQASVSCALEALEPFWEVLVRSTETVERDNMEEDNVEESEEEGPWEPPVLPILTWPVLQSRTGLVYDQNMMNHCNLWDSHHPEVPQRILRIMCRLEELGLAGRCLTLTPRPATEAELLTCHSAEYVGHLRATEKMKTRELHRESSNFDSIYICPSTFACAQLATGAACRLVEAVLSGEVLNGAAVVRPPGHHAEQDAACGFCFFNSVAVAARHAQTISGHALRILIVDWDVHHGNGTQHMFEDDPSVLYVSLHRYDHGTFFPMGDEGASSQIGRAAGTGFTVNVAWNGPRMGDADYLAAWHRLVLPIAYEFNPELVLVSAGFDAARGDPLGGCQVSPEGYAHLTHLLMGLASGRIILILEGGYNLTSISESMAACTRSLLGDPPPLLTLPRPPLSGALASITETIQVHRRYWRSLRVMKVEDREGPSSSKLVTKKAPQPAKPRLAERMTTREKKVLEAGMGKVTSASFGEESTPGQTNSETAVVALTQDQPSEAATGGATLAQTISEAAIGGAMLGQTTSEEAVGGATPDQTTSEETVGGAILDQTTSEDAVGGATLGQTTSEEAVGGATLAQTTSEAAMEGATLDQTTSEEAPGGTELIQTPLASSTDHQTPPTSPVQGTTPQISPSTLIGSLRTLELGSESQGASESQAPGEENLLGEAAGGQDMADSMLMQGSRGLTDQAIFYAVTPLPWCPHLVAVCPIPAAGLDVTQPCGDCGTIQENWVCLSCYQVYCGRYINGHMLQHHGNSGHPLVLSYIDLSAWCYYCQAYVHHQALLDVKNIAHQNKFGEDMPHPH
method.description: Inhibition of recombinant human HDAC6 expressed in baculovirus infected sf9 cells using fluor-de-Lys-SIRT1 as substrate by fluorescence method
pIC50: −log10 of the molar value.
quantity.kind: pIC50

input_smiles=COc1cc(C(=O)OCCCCCCCOC(=O)c2ccc(O)c(OC)c2)ccc1O result_value=6.70

###

system.under.test: UniProt:O15379
Sequence (O15379 whole entry): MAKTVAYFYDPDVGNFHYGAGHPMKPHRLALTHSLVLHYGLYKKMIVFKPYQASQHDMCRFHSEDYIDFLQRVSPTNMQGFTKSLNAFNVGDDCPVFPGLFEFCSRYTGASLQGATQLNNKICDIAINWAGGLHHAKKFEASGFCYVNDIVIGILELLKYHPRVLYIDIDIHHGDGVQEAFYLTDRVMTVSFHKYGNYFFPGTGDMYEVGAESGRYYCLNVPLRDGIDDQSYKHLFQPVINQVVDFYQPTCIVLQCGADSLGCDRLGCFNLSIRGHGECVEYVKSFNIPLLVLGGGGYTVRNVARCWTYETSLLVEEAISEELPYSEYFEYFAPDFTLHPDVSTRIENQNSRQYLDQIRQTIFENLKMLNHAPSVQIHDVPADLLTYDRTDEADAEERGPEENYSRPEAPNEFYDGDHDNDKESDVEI
method.description: Inhibition of human HDAC3 using fluorogenic HDAC substrate incubated for 10 mins by spectrophotometric method
pIC50: −log10 of the molar value.
quantity.kind: pIC50

input_smiles=O=C(NO)c1ccc(Cn2c3c(c4ccccc42)S(=O)(=O)CC3)cc1 result_value="< 5.30"

The reported numbers originate from ChEMBL document CHEMBL4673207.
